# testedSystem: P23H rhodopsin fused with Renilla luciferase (Mus musculus, UniProt P15409, P23H)
# testDescription: Rluc reporter assay in Hek293
# Type: cell-based
# assayConditions: read-out: Rluc assay Hek293 (RHO^P23H-Rluc) EC50; 24 h treatment; dose response
// returns label 0 unless EC50 is strictly below 2 µM, in which case label 1

Query: Input CC(O)CN (centres unmarked) ; condition: EC50 strictly below 2 µM. Does it hold?
Result: label 1

Query: Hi there! Is EC50 for CC(=O)OC(CC(=O)[O-])C[N+](C)(C)C (centres unmarked) below 2 µM, do you know?
Result: label 1

Query: Determine if NCC(=O)COP(=O)(O)O shows EC50 strictly lower than 2 µM.
Result: label 0

Query: Dear reviewer, please state whether O=[N+]([O-])c1ccc(Cl)c([N+](=O)[O-])c1 has EC50 strictly beneath 2 µM.
Result: label 1

Query: Item CCC(C)(O)C(O)C(=O)O (centres unmarked) : EC50 beneath 2 µM, strictly?
Result: label 1

Query: Record O=C(O)C1=CC=CC(O)C1O (centres unmarked) : is its EC50 strictly below 2 µM?
Result: label 1

Query: Lab log: compare recorded EC50 with 2 µM; is it strictly lower for CCn1cnc2c(N)ncnc21 ?
Result: label 0

====

# testedSystem: P23H rhodopsin fused with Renilla luciferase (Mus musculus, UniProt P15409, P23H)
# testDescription: Rluc reporter assay in Hek293
# Assay type: cell-based
# assayConditions: DMSO = 0%, 1 mM Evans Blue = -100%
Quick rule for you: Rluc assay Hek293 (RHO^P23H-Rluc) Efficacy at -70% or higher means Yes, lower means No.

Query: Say whether O=C(O)C1=CC=CC(O)C1O (centres unmarked) shows Rluc assay Hek293 (RHO^P23H-Rluc) Efficacy of -70% or more.
Result: Yes

Query: Kindly determine if Rluc assay Hek293 (RHO^P23H-Rluc) Efficacy recorded for CCC(C)(O)C(O)C(=O)O (centres unmarked) is above or exactly -70%.
Result: No

Query: Form field: Rluc assay Hek293 (RHO^P23H-Rluc) Efficacy at least -70%? Entry: NCC(=O)COP(=O)(O)O
Result: No

Query: Does CC(=O)OC(CC(=O)O)C[N+](C)(C)C (centres unmarked) have a reported Rluc assay Hek293 (RHO^P23H-Rluc) Efficacy of at least -70%?
Result: No

Query: Quick check, Rluc assay Hek293 (RHO^P23H-Rluc) Efficacy >= -70%? O=[N+]([O-])c1ccc(Cl)c([N+](=O)[O-])c1
Result: Yes

Query: Item CCn1cnc2c(N)ncnc21 with Rluc assay Hek293 (RHO^P23H-Rluc) Efficacy of -70% or above?
Result: No
